All figures here come from paper PMC3961306.

Listed here: items and their measured pIC50.
Test system: forty-four human cancer cell lines
ASSAY_REMARKS: Cell proliferation assay (ATPlite, 72 hours) in the 44 cell line Oncolines panel
Type: cell-based
REPORTED_CONDITIONS: Homo sapiens, LoVo, read-out: cell panel IC50, LoVo
When answering, recall that pIC50 equals minus log10 of the concentration in mol/L, and write that number alone.

Answered cases to consult:
CN(C)C/C=C/C(=O)Nc1cc2c(Nc3ccc(F)c(Cl)c3)ncnc2cc1O[C@H]1CCOC1
5.68
C#Cc1cccc(Nc2ncnc3cc(OCCOC)c(OCCOC)cc23)c1
5.65
COc1cc(Nc2c(C#N)cnc3cc(OCCCN4CCN(C)CC4)c(OC)cc23)c(Cl)cc1Cl
6.09

Let's switch to this compound now.
Prompt: Give the measured pIC50 for CS(=O)(=O)CCNCc1ccc(-c2ccc3ncnc(Nc4ccc(OCc5cccc(F)c5)c(Cl)c4)c3c2)o1
Response: 5.04
